Data origin: paper PMC6170201

# systemUnderTest: UGT1A6 (Homo sapiens)
# Sequence (P19224 27-532): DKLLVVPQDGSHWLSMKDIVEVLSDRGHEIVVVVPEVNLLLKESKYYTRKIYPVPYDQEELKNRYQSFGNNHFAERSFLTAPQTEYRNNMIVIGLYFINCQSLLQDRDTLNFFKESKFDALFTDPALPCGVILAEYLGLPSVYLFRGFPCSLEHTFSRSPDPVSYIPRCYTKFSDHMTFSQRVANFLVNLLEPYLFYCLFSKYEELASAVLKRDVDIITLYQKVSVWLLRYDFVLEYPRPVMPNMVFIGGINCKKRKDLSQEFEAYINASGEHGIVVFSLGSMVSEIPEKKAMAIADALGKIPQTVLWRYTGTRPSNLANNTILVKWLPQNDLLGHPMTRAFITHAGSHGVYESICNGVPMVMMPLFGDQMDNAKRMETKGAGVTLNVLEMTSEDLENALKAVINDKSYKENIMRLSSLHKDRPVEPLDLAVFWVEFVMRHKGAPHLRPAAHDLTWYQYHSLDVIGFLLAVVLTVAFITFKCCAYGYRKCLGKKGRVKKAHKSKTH
# assayRemarks: Acetaminophen glucuronidation, treated intact UGT1A6-infected Sf9 cells
pIC50: −log10 of the molar value.

{"smilesData": "COc1cc(/C=C/C(=O)CC(=O)/C=C/c2ccc(O)c(OC)c2)ccc1O", "boundOperator": "=", "pIC50": 4.23}
{"smilesData": "Cc1cc(O)c2c(=O)c3c(O)cc(O)c4c5c(O)cc(O)c6c(=O)c7c(O)cc(C)c8c1c2c(c34)c(c78)c65", "boundOperator": "=", "pIC50": 6.26}
{"smilesData": "CC(=O)c1c(O)c(C)c(O)c(Cc2c(O)c3c(c(C(=O)/C=C/c4ccccc4)c2O)OC(C)(C)C=C3)c1O", "boundOperator": "<", "pIC50": 4.40}
{"smilesData": "COc1c(C[C@@H](C)OC(=O)Oc2ccc(O)cc2)c2c3c(C[C@@H](C)OC(=O)c4ccccc4)c(OC)c(=O)c4c(O)cc(OC)c(c5c(OC)cc(O)c(c1=O)c52)c43", "boundOperator": "=", "pIC50": 6.08}
